Assay: photoluminescence quantum yield (fraction); solvent given as SMILES
Condition description: in CCO
The reader will find reported photoluminescence quantum yield values listed item by item below.
Readout name: photoluminescence quantum yield

{"columns": ["Compound", "Readout name", "Reported result"],
 "data": [
  ["COC(=O)c1ccccc1-c1c2ccc(=[NH2+])cc-2oc2cc(N)ccc12", "photoluminescence quantum yield", 0.88],
  ["CSc1sc(C(C)=O)c2nn[nH]c(=O)c12", "photoluminescence quantum yield", 0.0091],
  ["CN(C)c1ccc(/C=C2\\CC/C(=C\\c3ccc(C#N)cc3)C2=O)cc1", "photoluminescence quantum yield", 0.0061],
  ["CCNc1ccc2c(C(F)(F)F)cc(=O)oc2c1", "photoluminescence quantum yield", 0.47],
  ["CC(C)[Si]1(C(C)C)c2cc(C=O)ccc2-c2ccc(N(c3ccccc3)c3ccccc3)cc21", "photoluminescence quantum yield", 0.11],
  ["O=C1C2=C(O[B-](F)(F)[n+]3c2ccc2ccccc23)c2cccc3c(N4CCOCC4)ccc1c23", "photoluminescence quantum yield", 0.45],
  ["C[Si]1(C)C2=CC(=[N+]3CCC3)C=C(F)C2=Nc2c(F)cc(N3CCC3)cc21", "photoluminescence quantum yield", 0.11],
  ["CC1(C)Nc2cc3nc4cc(Cl)c(Cl)cc4nc3cc2N1", "photoluminescence quantum yield", 0.42],
  ["Oc1cc(-c2ccco2)ccc1-c1nc2ccccc2s1", "photoluminescence quantum yield", 0.137],
  ["Oc1cc(-c2cccs2)ccc1-c1nc2ccccc2s1", "photoluminescence quantum yield", 0.1],
  ["CC/[NH+]=c1\\cc2oc3cc(NCCC(=O)NCC(=O)OC)c4ccccc4c3nc-2cc1C", "photoluminescence quantum yield", 0.37],
  ["COC(=O)C(CCCCNC(=O)CCNc1cccc2ccccc12)NC(C)=O (stereo unspecified)", "photoluminescence quantum yield", 0.54],
  ["CCC1=C(C)C2=Cc3c(I)c(I)c(I)n3[B-](F)(F)[N+]2=C1C", "photoluminescence quantum yield", 0.037],
  ["N#C/C(=N/Nc1ccc(C#N)cc1)c1nc(-c2ccccc2)cs1", "photoluminescence quantum yield", 0.0001],
  ["Cc1c(COC(=O)c2ccc(I)cc2)n2c(OCC(=O)c3ccc(I)cc3)c(C)c(=O)n2c1=O", "photoluminescence quantum yield", 0.842],
  ["CC1=C(C(C)(C)C)C(C)=[N+]2C1=C(C)c1c(C)c(C(C)(C)C)c(C)n1[B-]2(F)F", "photoluminescence quantum yield", 0.43],
  ["CC(=O)OC[C@@H]1O[C@H](N2C=CC3=Nc4nc(C)[n+](C)cc4CN3C2=O)[C@@H](O)[C@H]1O", "photoluminescence quantum yield", 0.05],
  ["Cc1ccc(OCc2cc(=O)oc3c2ccc2ccccc23)cc1", "photoluminescence quantum yield", 0.028],
  ["CCN(CC)c1ccc2c(C)cc(=O)oc2c1", "photoluminescence quantum yield", 0.41],
  ["O=CN1N=C(c2ccc(Br)cc2)C[C@@H]1c1ccccc1", "photoluminescence quantum yield", 0.13],
  ["COc1ccc(C2CC(c3ccc(O)cc3)=NN2c2ccc(S(N)(=O)=O)cc2)cc1 (stereo unspecified)", "photoluminescence quantum yield", 0.47]
]}

====

Assay: photoluminescence quantum yield (fraction); solvent given as SMILES
Condition description: in C1CCCCC1
Readout name: photoluminescence quantum yield

{"columns": ["Smiles notation", "Readout name", "Reported result"],
 "data": [
  ["CN(C)c1ccc(-c2nc3cccnc3[nH]2)cc1", "photoluminescence quantum yield", 0.72],
  ["c1ccc2c(c1)[nH]c1cccnc12", "photoluminescence quantum yield", 0.145],
  ["Cc1ccccc1-c1ccccc1C", "photoluminescence quantum yield", 0.01],
  ["CC(C)(C)c1ccc(-c2ccc(C(C)(C)C)cc2)cc1", "photoluminescence quantum yield", 0.26],
  ["CCCC1(CCC)c2cc(-c3ccc(-c4ccc(OC)cc4)o3)ccc2-c2ccc(-c3ccc(-c4ccc(OC)cc4)o3)cc21", "photoluminescence quantum yield", 0.79],
  ["COc1ccc2c3c(c4ccc(OC)cc4c2c1)=[N+]1C(=C(c2c(C)cc(C)cc2C)c2cc4c5ccc(OC)cc5c5cc(OC)ccc5c4n2[B-]1(F)F)C=3", "photoluminescence quantum yield", 0.63],
  ["Cc1ccc(C2=C3C=CC(Cl)=[N+]3[B-](F)(F)n3c(Cl)ccc32)cc1", "photoluminescence quantum yield", 0.33],
  ["O=CN1N=C(c2ccc(Br)cc2)C[C@@H]1c1ccccc1", "photoluminescence quantum yield", 0.25],
  ["Cc1cc(C)c(B2c3cc(C(C)(C)C)ccc3-c3c(-c4ccccc4)ccc4cc(C(C)(C)C)cc2c34)c(C)c1", "photoluminescence quantum yield", 0.91],
  ["CCCC1(CCC)c2cc(-c3ccc(OC)cc3)ccc2-c2ccc(-c3ccc4c(c3)C(CCC)(CCC)c3cc(-c5ccc(OC)cc5)ccc3-4)cc21", "photoluminescence quantum yield", 1]
]}

Origin of the recorded values: the Deep4Chem optical property database
